# credit: ChEMBL document CHEMBL1201862

Tested on: DU-145
Assay: NCI tumour cell line growth inhibition, 48 h
Active and inactive are the calls of the source. Rule as the data show it: active = GI50 up to about 1.1 µM and inactive = higher.
ENDPOINT LABEL: GI50

1) Cc1nc(C)c(C(=O)NNC(=O)c2ccccc2)cc1C(=O)NNC(=O)c1ccccc1 :: > 100 µM (inactive)
2) CC1=NN(C(=O)CC(=O)Nc2ccccc2Cl)C(=O)C1/N=N\c1ccc(S(=O)(=O)c2ccc(/N=N/C3C(=O)N(C(=O)CC(=O)Nc4ccccc4Cl)N=C3C)cc2)cc1 (centres undefined) :: > 100 µM (inactive)
3) COc1ccc2c(c1)CC[C@@H]1[C@@H]2CC[C@]2(C)/C(=N/OCCN3CCCC3)CC[C@@H]12 :: 3.94 µM (inactive)
4) O=CN/C=C/c1ccccc1O :: > 100 µM (inactive)
5) CC(C)(C)OC(=O)CN1CCNCCN(CC(=O)OC(C)(C)C)CCNCC1 :: > 100 µM (inactive)
6) Cc1cccc(-c2cc(=S)c3cc(N4CCCC4)ccc3[nH]2)c1 :: > 100 µM (inactive)
7) SCCSCCCSCCS :: 56.4 µM (inactive)
8) CC(=O)Oc1ccn2nc(C)c(Cc3c(C)nn4ccc(OC(C)=O)cc34)c2c1 :: > 100 µM (inactive)
9) CC1CCCCNC1=S (centres undefined) :: > 10 µM (inactive)
